- Experimental System: T1, cynomolgus Gamma/Delta1A TCR-Fc fusion protein (cynomolgus monkey, biotinylated in vitro with recombinant BirA (AviTag))
- T1 construct: First chain = delta, second = gamma; also called Cyno D1; cyno D1; not shown: Fc portion of mouse IgG, then AviTag and His6 tag at the C-terminus; Fc portion of mouse IgG
- T1 sequence (chain, as listed by the source mutant, chain 1 of 2): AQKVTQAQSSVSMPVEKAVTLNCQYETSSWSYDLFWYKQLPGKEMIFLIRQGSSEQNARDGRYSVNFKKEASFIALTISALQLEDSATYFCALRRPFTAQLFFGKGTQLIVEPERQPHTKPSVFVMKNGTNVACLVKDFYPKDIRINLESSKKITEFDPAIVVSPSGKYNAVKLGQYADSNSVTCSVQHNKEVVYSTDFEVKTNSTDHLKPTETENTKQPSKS
- T1 sequence (chain, as listed by the source mutant, chain 2 of 2): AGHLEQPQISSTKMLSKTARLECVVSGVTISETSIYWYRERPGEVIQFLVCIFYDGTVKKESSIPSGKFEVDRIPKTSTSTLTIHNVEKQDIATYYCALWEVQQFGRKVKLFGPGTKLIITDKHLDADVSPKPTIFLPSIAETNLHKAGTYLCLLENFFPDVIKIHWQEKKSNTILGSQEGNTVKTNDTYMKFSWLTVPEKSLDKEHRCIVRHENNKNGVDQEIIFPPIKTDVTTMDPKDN
- Procedure Details: bead binding assay (TCR-Fc on streptavidin beads, IgG titrated, flow cytometry); apparent KD, s.d. of triplicates

Binder | Kd / nM
Delta1-26 (antibody, V domains shown, Tested in the human IgG format) VH: EVQLVESGGGLVQPGGSLRLSCAASGFTVSSSSIHWVRQAPGKGLEWVASIYSSSGYTYYADSVKGRFTISADTSKNTAYLQMNSLRAEDTAVYYCARDPGSYYWYYSGSAYEGYGLDYWGQGTLVTVSS VL: DIQMTQSPSSLSASVGDRVTITCRASQSVSSAVAWYQQKPGKAPKLLIYAASSLQSGVPSRFSGSRSGTDFTLTISSLQPEDFATYYCQQQQRYSYLITFGQGTKVEIKR | 0.26
